// provenance: patent US20220274979A1

- study-target: hSOS1 (hSOS1-mediated loading of hK-RasG12C-GDP) (Homo sapiens, UniProt Q07889)
- Sequence (Q07889 with tags, fused parts or gaps): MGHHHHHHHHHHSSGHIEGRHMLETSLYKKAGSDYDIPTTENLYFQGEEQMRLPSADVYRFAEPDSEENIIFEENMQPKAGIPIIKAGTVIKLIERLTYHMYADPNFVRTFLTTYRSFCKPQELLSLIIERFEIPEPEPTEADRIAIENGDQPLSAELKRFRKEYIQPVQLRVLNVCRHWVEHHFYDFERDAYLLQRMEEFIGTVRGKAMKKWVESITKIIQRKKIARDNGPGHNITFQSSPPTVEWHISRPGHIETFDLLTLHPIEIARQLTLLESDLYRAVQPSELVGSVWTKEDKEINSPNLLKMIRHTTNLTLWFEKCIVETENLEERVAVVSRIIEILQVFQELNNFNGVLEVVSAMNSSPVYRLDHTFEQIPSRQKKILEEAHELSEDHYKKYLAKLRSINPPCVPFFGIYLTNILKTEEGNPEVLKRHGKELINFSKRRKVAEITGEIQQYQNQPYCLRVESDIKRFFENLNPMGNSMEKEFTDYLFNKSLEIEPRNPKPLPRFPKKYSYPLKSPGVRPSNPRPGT
pIC50: −log10 of the molar value.

{"molecule": "Cc1nc(NC(C)c2ccc(Br)s2)c2cc(F)ncc2n1 (stereo not drawn) [Example 35]", "pIC50": "< 4.70"}
{"molecule": "Cc1nc(N[C@H](C)c2cccc(Br)c2)c2nc(N(C)C)ncc2n1 [Example 21]", "pIC50": "≤ 4.40"}
{"molecule": "Cc1nc(N[C@H](C)c2cccc(Br)c2)c2nc(Oc3ccccc3)ccc2n1 [Example 32]", "pIC50": "< 4.70"}
{"molecule": "Cc1nc(N[C@H](C)c2cccc(Br)c2)c2cc(F)ncc2n1 [Example 34]", "pIC50": "< 4.70"}
{"molecule": "CCOc1ccc2nc(C)nc(N[C@H](C)c3cccc(Br)c3)c2n1 [Example 29]", "pIC50": "< 4.70"}
{"molecule": "COc1cc2c(N[C@H](C)c3ccc(F)c(Cl)c3)nc(C)nc2cn1 [Example 8]", "pIC50": "< 4.70"}

---

IC50 by entry:
- study-target: hK-RasG12C - hSOS1 interaction (Homo sapiens)
- Construct: hSOS1 (amino acid 564-1049); made in house; host or cells: E. coli BL21 (DE3)
- protocol-details: Biochemical Assay 1: hK-RasG12C interaction assay with hSOS1 (HTRF)
- Type: binding
- assay-context: values expressed as IC50
experimental-endpoint: IC50 (nM)

{"compound": "Cc1nc(N[C@H](C)c2cccc(Br)c2)c2cc(N3CCNC(=O)C3)ncc2n1", "study-target": "hK-RasG12C - hSOS1 interaction (Homo sapiens)", "value-observed": 91.8}
{"compound": "CCOc1ncc2nc(C)nc(N[C@H](C)c3cccc(Br)c3)c2n1", "study-target": "hK-RasG12C - hSOS1 interaction (Homo sapiens)", "value-observed": 4350}
{"compound": "Cc1nc(NC(C)c2ccc(-c3ccccc3CN(C)C)s2)c2cc(N3CC(NCc4ccccc4)C3)ncc2n1 (stereo not shown)", "study-target": "hK-RasG12C - hSOS1 interaction (Homo sapiens)", "value-observed": 53.2}
{"compound": "Cc1nc(N[C@H](C)c2cccc(Br)c2)c2cc(OCCCN(C)C)ncc2n1", "study-target": "hK-RasG12C - hSOS1 interaction (Homo sapiens)", "value-observed": 409}
{"compound": "Cc1nc(N[C@H](C)c2ccc(F)cc2)c2cc(OC(C)C)ncc2n1", "study-target": "hK-RasG12C - hSOS1 interaction (Homo sapiens)", "value-observed": 1480}
{"compound": "Cc1nc(N[C@H](C)c2cccc(Br)c2)c2cc(NC3CCOCC3)ncc2n1", "study-target": "hK-RasG12C - hSOS1 interaction (Homo sapiens)", "value-observed": 1290}
{"compound": "Cc1nc(N[C@H](C)c2cccc(Br)c2)c2cc(N3CCN(Cc4cccnc4)CC3)ncc2n1", "study-target": "hK-RasG12C - hSOS1 interaction (Homo sapiens)", "value-observed": 296}
{"compound": "CC(=O)NC1CCN(c2cc3c(N[C@H](C)c4cccc(Br)c4)nc(C)nc3cn2)C1 (mixture of isomers)", "study-target": "hK-RasG12C - hSOS1 interaction (Homo sapiens)", "value-observed": 187}
{"compound": "Cc1nc(NC(C)c2ccc(-c3ccccc3CN(C)C)s2)c2cc(N3CC(NC(=O)CCCn4c(-c5ccccn5)nc(C)c4C)C3)ncc2n1 (stereo not shown)", "study-target": "hK-RasG12C - hSOS1 interaction (Homo sapiens)", "value-observed": 71}
{"compound": "COc1ncc2nc(C)nc(N[C@H](C)c3cccc(Br)c3)c2n1", "study-target": "hK-RasG12C - hSOS1 interaction (Homo sapiens)", "value-observed": 9410}
{"compound": "CC(=O)N(c1cccc(C(=O)NC2CN(c3cc4c(NC(C)c5ccc(-c6ccccc6CN(C)C)s5)nc(C)nc4cn3)C2)c1)[C@@H]1CCN(C(=O)OC(C)(C)C)C1 (stereo partly shown)", "study-target": "hK-RasG12C - hSOS1 interaction (Homo sapiens)", "value-observed": 293}
{"compound": "CCOc1cc2c(NC(C)c3ccc(-c4ccccc4CN(C)C)s3)nc(C)nc2cn1 (stereo not shown)", "study-target": "hK-RasG12C - hSOS1 interaction (Homo sapiens)", "value-observed": 43.6}
{"compound": "CCOc1cc2c(N[C@H](C)c3ccc(C#N)cc3)nc(C)nc2cn1", "study-target": "hK-RasG12C - hSOS1 interaction (Homo sapiens)", "value-observed": 1110}
